// values below are reported Population Pyknosed Nuclei (%)
Tested on: HEK-293T
assay: Multiplex assay against HEK293T
Format: toxicity, cell-based
measurement setup: human, 48 h, 10 µM, compound concentration 10 uM, replicate 2
Non-standard residues stand in square brackets, D forms with d. Residues, ends and D or L forms follow the SMILES beside them.
The answer is to be given in %; state only the numeric part.

Worked set:
Q. What value of Population Pyknosed Nuclei (%) has been reported for the following molecule? COc1cc(OC2CCN(C(C)=O)CC2)ccc1C(=O)N1CCC(N2C(=O)OCc3ccccc32)CC1
A. 7

Q. What value of Population Pyknosed Nuclei (%) has been reported for the following molecule? COc1cc2nc(N3CCN(C(=O)COc4c(OC)cccc4C(C)C)CC3)nc(N)c2cc1OC.Cl.Cl
A. 23

Q. What value of Population Pyknosed Nuclei (%) has been reported for the following molecule? Cc1nn(C)c2nc(NNC(=O)Nc3cc(Cl)nc(Cl)c3)cc(C(C)C)c12
A. 10

Q. What value of Population Pyknosed Nuclei (%) has been reported for the following molecule? CCCCC[C@H](O)/C=C/[C@H]1[C@H](O)CC(=O)[C@@H]1CCCCCCC(=O)O [ALPROSTADIL]
A. 6

Q. What value of Population Pyknosed Nuclei (%) has been reported for the following molecule? CN1C[C@H](C(=O)N[C@]2(C)O[C@@]3(O)[C@@H]4CCCN4C(=O)[C@H](Cc4ccccc4)N3C2=O)C[C@@H]2c3cccc4[nH]cc(c34)C[C@H]21.CS(=O)(=O)O [DIHYDROERGOTAMINE MESYLATE]
A. 6

Q. What value of Population Pyknosed Nuclei (%) has been reported for the following molecule? CC(C)C[C@@H]1NC(=O)[C@@H](C(C)C)NC(=O)[C@@H]2CCCN2C(=O)[C@@H](CC(=O)O)NC(=O)[C@@H](Cc2c[nH]c3ccccc23)NC1=O [BQ-123] (cyclo(L[dW][dD]P[dV]))
A. 8

Lab note: next molecule to report on.
Q. What value of Population Pyknosed Nuclei (%) has been reported for the following molecule? OCCCNc1cc(-c2ccnc(Nc3cccc(Cl)c3)n2)ccn1
A. 28

====

// values below are reported Population Normal (%)
Test system: Fibroblast
assay: Multiplex assay against human fibroblast
Format: toxicity, cell-based
measurement setup: 48 h, 10 µM, compound concentration 10 uM, replicate 2
The answer is to be given in %; state only the numeric part.

Q. What value of Population Normal (%) has been reported for the following compound? Cc1ccc(OCC(O)C(C)NC(C)C)c2c1CCC2.Cl (stereo unspecified)
A. 92

Lab note: next compound to report on.
Q. What value of Population Normal (%) has been reported for the following compound? CCCCC[C@H](O)/C=C/[C@H]1[C@H](O)CC(=O)[C@@H]1CCCCCCC(=O)O [ALPROSTADIL]
A. 83

====

// values below are reported Total Cell Count
System: HEK-293T
assay: Multiplex assay against HEK293T
Format: toxicity, cell-based
measurement setup: human, 12 h, 10 µM, compound concentration 10 uM, replicate 2

Q. What value of Total Cell Count has been reported for the following molecule? CC(C)C[C@H](CO)Nc1nc(S[C@@H](C)c2ccccc2)nc2nc(N)sc12 [AZD-8797]
A. 345

Q. What value of Total Cell Count has been reported for the following molecule? CCCCCCNC(=O)Nc1ccc(S(=O)(=O)Nc2ccc(CCNC[C@H](O)COc3ccc(O)cc3)cc2)cc1 [L-755507]
A. 341

Q. What value of Total Cell Count has been reported for the following molecule? Cc1cc(-c2ccc3c(c2)CC[C@H]3N2CC3(CCN(C(=O)Cc4cn5cc(C)sc5n4)CC3)C2)ncn1 [PF-5190457]
A. 322

Q. What value of Total Cell Count has been reported for the following molecule? CN1CCN(c2ccc(Nc3c4ccccc4nc4ccccc34)cc2)CC1.Cl.Cl.O
A. 194

Q. What value of Total Cell Count has been reported for the following molecule? COc1cc2nc(N3CCN(C(=O)c4ccco4)CC3)nc(N)c2cc1OC.Cl [PRAZOSIN HYDROCHLORIDE]
A. 404

New cases:
Q. What value of Total Cell Count has been reported for the following molecule? C[C@H](NC(=O)CNC(=O)c1cccc(Cl)c1)c1ccccc1
A. 272

Q. What value of Total Cell Count has been reported for the following molecule? Nc1nc(-c2ccco2)c2cnn(Cc3ccccc3F)c2n1
A. 265

Q. What value of Total Cell Count has been reported for the following molecule? CN(C)C(=O)Cn1cc(-c2ccc(-c3nnc4ccccn34)cc2)cn1
A. 356

====

Test system: U2OS
assay: Multiplex assay against U2OS
Format: toxicity, cell-based
measurement setup: human, 24 h, 10 µM, compound concentration 10 uM, replicate 2
value type: Population Tubulin-Different-Phenotype (%)
The answer is to be given in %; state only the numeric part.

Worked set:
Q. Field: Population Tubulin-Different-Phenotype (%) (U2OS). Entry: CN(C)C/C=C/C(=O)Nc1ccc(C(=O)N2CCCC(Nc3ncc(Cl)c(-c4c[nH]c5ccccc45)n3)C2)cc1 (stereo not drawn)
A. 17

Q. Field: Population Tubulin-Different-Phenotype (%) (U2OS). Entry: CN1C[C@H](C(=O)N[C@]2(C)O[C@@]3(O)[C@@H]4CCCN4C(=O)[C@H](Cc4ccccc4)N3C2=O)C[C@@H]2c3cccc4[nH]cc(c34)C[C@H]21.CS(=O)(=O)O [DIHYDROERGOTAMINE MESYLATE]
A. 1

Q. Field: Population Tubulin-Different-Phenotype (%) (U2OS). Entry: Cc1ccc(OCC(O)C(C)NC(C)C)c2c1CCC2.Cl (stereo not drawn)
A. 6

Q. Field: Population Tubulin-Different-Phenotype (%) (U2OS). Entry: Cc1cc(-c2ccc3c(c2)CC[C@H]3N2CC3(CCN(C(=O)Cc4cn5cc(C)sc5n4)CC3)C2)ncn1 [PF-5190457]
A. 4

Q. Field: Population Tubulin-Different-Phenotype (%) (U2OS). Entry: Cc1nn(C)c2nc(NNC(=O)Nc3cc(Cl)nc(Cl)c3)cc(C(C)C)c12
A. 57

New cases:
Q. Field: Population Tubulin-Different-Phenotype (%) (U2OS). Entry: Nc1nc(-c2ccco2)c2cnn(Cc3ccccc3F)c2n1
A. 4

====

System: HEK-293T
assay: Multiplex assay against HEK293T
Format: toxicity, cell-based
measurement setup: human, 12 h, 10 µM, compound concentration 10 uM, replicate 1
Note to self: Population Tubulin-Different-Phenotype (%) under 40% means 1, ties and anything higher get 0.

These solved cases illustrate the format of a correct answer.
Q. Check if Population Tubulin-Different-Phenotype (%) falls below 40% for COCCn1c(C)c(C)s/c1=N\C(=O)C1C(C)(C)C1(C)C .
A. 0

Q. Check if Population Tubulin-Different-Phenotype (%) falls below 40% for COc1cc(C(=O)N2CC[C@@H](O)[C@@H](N)C2)cc2nc(-c3cc4ccccc4n3CC3CC3)n(C)c12.Cl .
A. 0

Q. Check if Population Tubulin-Different-Phenotype (%) falls below 40% for Cl.Cl.OCCOCCN1CCN(C(c2ccccc2)c2ccc(Cl)cc2)CC1 (configuration not stated) [HYDROXYZINE HYDROCHLORIDE] .
A. 0

Q. Check if Population Tubulin-Different-Phenotype (%) falls below 40% for CN1C[C@H](C(=O)N[C@]2(C)O[C@@]3(O)[C@@H]4CCCN4C(=O)[C@H](Cc4ccccc4)N3C2=O)C[C@@H]2c3cccc4[nH]cc(c34)C[C@H]21.CS(=O)(=O)O [DIHYDROERGOTAMINE MESYLATE] .
A. 1

Q. Check if Population Tubulin-Different-Phenotype (%) falls below 40% for Cc1cc(-c2ccc3c(c2)CC[C@H]3N2CC3(CCN(C(=O)Cc4cn5cc(C)sc5n4)CC3)C2)ncn1 .
A. 1

New cases:
Q. Check if Population Tubulin-Different-Phenotype (%) falls below 40% for COc1ccc2[nH]c(I)c(CCNC(C)=O)c2c1 .
A. 1

Q. Check if Population Tubulin-Different-Phenotype (%) falls below 40% for COc1c(Nc2ccc(S(C)(=O)=O)nc2C)ncnc1OC1CCN(C(=O)OC(C)C)CC1 .
A. 0

Q. Check if Population Tubulin-Different-Phenotype (%) falls below 40% for CC(C)(O)C(=O)N1CCN(c2ccc(C(F)(F)F)c(C3=C(c4c[nH]c5ccccc45)C(=O)NC3=O)c2)CC1 .
A. 0

Q. Check if Population Tubulin-Different-Phenotype (%) falls below 40% for OCCCNc1cc(-c2ccnc(Nc3cccc(Cl)c3)n2)ccn1 .
A. 0

Q. Check if Population Tubulin-Different-Phenotype (%) falls below 40% for Cc1ccc(OCC(O)C(C)NC(C)C)c2c1CCC2.Cl (configuration not stated) .
A. 0

Q. Check if Population Tubulin-Different-Phenotype (%) falls below 40% for O=c1nc2[nH]c3ccccc3nc-2c(=O)[nH]1 .
A. 1

Q. Check if Population Tubulin-Different-Phenotype (%) falls below 40% for COc1cc2nc(N3CCN(C(=O)c4ccco4)CC3)nc(N)c2cc1OC.Cl [PRAZOSIN HYDROCHLORIDE] .
A. 0

Q. Check if Population Tubulin-Different-Phenotype (%) falls below 40% for C[C@@H]1CC(=O)Nc2cccc(-c3ccc4c(c3)c(-c3cnn(C)c3)nn4C)c2N1 .
A. 0
